Target entity: HLA-B*07:02
Assay method text: IEDB peptide-MHC binding, purified MHC/competitive/fluorescence; filed as Kd, often an IC50 or EC50 that approximates it; bounds were set here for any values at or beyond the usual limits of such assays
Test settings: source organism: Burkholderia mallei SAVP1
Measured attribute: Kd

query: Given the sequence MVFGRFSFA , write its reported Kd.
result: ≥ 5 µM

* * *

Target entity: HLA-A*68:02
Assay method text: IEDB peptide-MHC binding, purified MHC/competitive/radioactivity; filed as Kd, often an IC50 or EC50 that approximates it; bounds were set here for any values at or beyond the usual limits of such assays
Test settings: source organism: Homo sapiens
pKd: −log10 of the molar value.
Overview of recorded pKd for various sequences

The following sequences have reported results that may help.
VLQRNCAAYL : ≤ 4.22
KLLEGEESRI : ≤ 4.22

Next, consider the following sequence.
query: Give pKd; test system HLA-A*68:02; sequence ELDSNLYRI
result: 6.04

* * *

Target entity: HLA-A*02:01
Assay method text: IEDB peptide-MHC binding, purified MHC/competitive/fluorescence; filed as Kd, often an IC50 or EC50 that approximates it; bounds were set here for any values at or beyond the usual limits of such assays
Test settings: source organism: Yersinia pestis Nepal516
Measured attribute: Kd

query: Report measured Kd; entry is LELIGNAES
result: ≥ 20 µM

* * *

Target entity: HLA-B*15:01
Assay method text: IEDB peptide-MHC binding, purified MHC/direct/fluorescence; filed as Kd, often an IC50 or EC50 that approximates it; bounds were set here for any values at or beyond the usual limits of such assays
Test settings: source organism: Vibrio cholerae
Measured attribute: Kd (nM)
Kindly provide the numeric value in nM only, without the unit symbol.

IVKQGRDAL : 1340

Attention now turns to another entry.
query: Identify measured Kd corresponding to YFRNSGMTY
result: 85.3

* * *

Target entity: HLA-B*46:01
Assay method text: IEDB peptide-MHC binding, purified MHC/direct/fluorescence; filed as Kd, often an IC50 or EC50 that approximates it; bounds were set here for any values at or beyond the usual limits of such assays
Test settings: source organism: Cryptosporidium parvum Iowa II
Measured attribute: Kd

query: Fill in: Kd on HLA-B*46:01, entry YLAKLFLDH
result: ≥ 20 µM

* * *

Target entity: HLA-A*02:02
Assay method text: IEDB peptide-MHC binding, purified MHC/competitive/radioactivity; filed as Kd, often an IC50 or EC50 that approximates it; bounds were set here for any values at or beyond the usual limits of such assays
Test settings: source organism: Human immunodeficiency virus type 1 (CLONE 12)
Measured attribute: Kd

query: Print HLA-A*02:02 Kd for PLTFGWCYKL .
result: ≥ 29.4 µM

* * *

Target entity: HLA-B*57:01
Assay method text: IEDB peptide-MHC binding, purified MHC/direct/fluorescence; filed as Kd, often an IC50 or EC50 that approximates it; bounds were set here for any values at or beyond the usual limits of such assays
Test settings: source organism: Cryptosporidium parvum
pKd: −log10 of the molar value.
Measured attribute: pKd

query: Under HLA-B*57:01, report pKd for RKWGLDFCY
result: ≤ 4.70

* * *

Target entity: HLA-C*14:02
Assay method text: IEDB peptide-MHC binding, purified MHC/direct/fluorescence; filed as Kd, often an IC50 or EC50 that approximates it; bounds were set here for any values at or beyond the usual limits of such assays
Test settings: source organism: Vaccinia virus Copenhagen
Measured attribute: Kd

query: Give reported Kd for KYFDDVTAF (HLA-C*14:02)
result: ≤ 1 nM
